- measured target: phospho-Ser520-DYRK1A (Homo sapiens)
- Construct: full-length, wild-type human DYRK1A (NM_001396) with an HA tag; expressed in transfected cells; host or cells: human U2-OS osteosarcoma cells, pcDNA3.1 plasmid
- assay overview: Cellular DYRK1A autophosphorylation assay in U2-OS cells
- Type: cell-based
- study conditions: 5 hours exposure, read-out: IC50 (μM) P-Ser520-Dyrk1A-Cell assay
parameter measured: IC50 (µM)

Worked set:
>>> readout_number("Cc1nc(-c2cc3ccccc3o2)c2c(-c3ccnc(N)c3)c[nH]c2n1")
0.029
>>> readout_number("Nc1cc(-c2c[nH]c3nc(C#CC4CC4)nc(-c4ccc5c(c4)OCO5)c23)cc(N)n1")
0.053
>>> readout_number("Cc1nc(NCC2CC2)c2c(-c3ccnc(N)c3)c[nH]c2n1")
0.898

P. Cc1nc(C#Cc2ccccc2F)c2c(-c3ccnc(N)c3)c[nH]c2n1
Q. Cc1nc(N2CCc3sccc3C2)c2c(-c3ccnc(N)c3)c[nH]c2n1
stdin: Of P and Q , whose reported IC50 is the larger number? Answer with the label corresponding to your selection.
stdout: Q

* * *

- measured target: His-TEV-DYRK1A Kinase domain (aa127-485) (Homo sapiens)
- Construct: His-TEV-DYRK1A Kinase domain (aa127-485); His (N); TEV cleavage site (N)
- assay overview: Kinase ADP assay (ADP Hunter Plus)
- Assay type: biochemical
parameter measured: IC50 (µM)

>>> readout_number("Cc1nc(-c2cncc(F)c2)c2c(-c3ccnc(N)c3)c[nH]c2n1 [Example 170]")
1.82
>>> readout_number("COc1ccccc1[C@H](C)Nc1nc(C)nc2[nH]cc(-c3cc(N)nc(N)c3)c12 [Example 117]")
0.01
>>> readout_number("Cc1nc(N[C@@H]2C[C@H]3CC[C@@H]2C3)c2c(-c3ccnc(N)c3)c[nH]c2n1 [Example 83]")
0.081
>>> readout_number("Cc1nc(N2CCc3ccccc3C2)c2c(-c3cc(N)nc(N)c3)c[nH]c2n1 [Example 114]")
0.009
>>> readout_number("Cc1nc(N2CCOCC2)c2c(-c3ccnc(N)c3)c[nH]c2n1 [Example 134]")
0.848

P. Cc1nc(-c2cccc(OCCN3CCCC3)c2)c2c(-c3ccnc(N)c3)c[nH]c2n1 [Example 202]
Q. Cc1nc(-c2ccc3c(c2)OC(F)(F)O3)c2c(-c3ccnc(N)n3)c[nH]c2n1 [Example 210]
stdin: For P and Q , which recorded IC50 is lower? Answer with the label corresponding to your selection.
stdout: Q
(Q: 0.05 µM, P: 0.144 µM)

P. Cc1nc(NCc2cc(-c3ccccc3)no2)c2c(-c3ccnc(N)c3)c[nH]c2n1 [Example 88]
Q. Cc1nc(OCCc2c[nH]c3ccccc23)c2c(-c3ccncc3)c[nH]c2n1 [Example 9]
stdin: Of P and Q , whose reported IC50 is the larger number? Answer with the label corresponding to your selection.
stdout: P
(P: 2.09 µM, Q: 0.06 µM)

* * *

- measured target: DYRK1A (Homo sapiens)
- Construct: full-length human kinases from Carna Biosciences; purchased Carna Biosciences 04-130
- assay overview: Kinase TR-FRET assay, DYRK1A
- Type: biochemical
parameter measured: IC50 (µM)

Worked set:
>>> readout_number("Cc1nc(OCc2ccc(C(C)C)cc2)c2c(-c3ccnc(N)c3)c[nH]c2n1")
0.0444
>>> readout_number("Cc1nc(NCC2CC2)c2c(-c3ccnc(N)c3)c[nH]c2n1")
0.0709

A. Cc1nc(N2CCC3CCCCC3C2)c2c(-c3ccnc(N)c3)c[nH]c2n1 (centres unmarked)
B. CCOc1ccccc1CNc1nc(C)nc2[nH]cc(-c3ccnc(N)c3)c12
C. Cc1nc(CN2CCc3ccccc32)c2c(-c3ccnc(N)c3)c[nH]c2n1
stdin: Ranking field: IC50; order: falling. Output spec: labels arranged per the requested ranking.
stdout: A, C, B

* * *

- measured target: phospho-Ser520-DYRK1A (Homo sapiens)
- Construct: full-length, wild-type human DYRK1A (NM_001396) with an HA tag; expressed in transfected cells; host or cells: human U2-OS osteosarcoma cells, pcDNA3.1 plasmid
- assay overview: Cellular DYRK1A autophosphorylation assay in U2-OS cells
- Type: cell-based
- study conditions: 5 hours exposure, read-out: IC50 (μM) P-Ser520-Dyrk1A-Cell assay
parameter measured: IC50 (µM)

Worked set:
>>> readout_number("COc1cccc(F)c1CNc1nc(C)nc2[nH]cc(-c3ccnc(N)c3)c12")
0.0036
>>> readout_number("Cc1nc(COc2c(F)cccc2F)c2c(-c3ccnc(N)c3)c[nH]c2n1")
0.118
>>> readout_number("COc1cccc(F)c1CNc1nc(C)nc2[nH]cc(-c3cc(N)nc(N)c3)c12")
0.0009
>>> readout_number("COc1cccnc1CNc1nc(C)nc2[nH]cc(-c3ccnc(N)c3)c12")
0.192
>>> readout_number("Cc1nc(NCc2cccc(Cl)c2C)c2c(-c3ccnc(N)c3)c[nH]c2n1")
0.155
>>> readout_number("Cc1nc(-c2cc3ccccc3s2)c2c(-c3ccnc(N)c3)c[nH]c2n1")
0.0142

1. Cc1nc(N2CCc3ccccc3C2)c2c(-c3ccnc(N)c3)c[nH]c2n1
2. Cc1nc(NCc2ccccc2F)c2c(-c3ccnc(N)c3)c[nH]c2n1
stdin: For 1 and 2 , which recorded IC50 is lower? Answer with the label corresponding to your selection.
stdout: 1

a. Nc1cc(-c2c[nH]c3nc(C#CC4CC4)nc(NCc4c(F)cccc4F)c23)ccn1
b. Cc1nc(NCc2ccccc2Cl)c2c(-c3ccnc(N)c3)c[nH]c2n1
stdin: Of a and b , whose reported IC50 is the larger number? Answer with the label corresponding to your selection.
stdout: b

* * *

- measured target: His-TEV-DYRK1A Kinase domain (aa127-485) (Homo sapiens)
- Construct: His-TEV-DYRK1A Kinase domain (aa127-485); His (N); TEV cleavage site (N)
- assay overview: Kinase ADP assay (ADP Hunter Plus)
- Format: biochemical
parameter measured: IC50 (µM)

>>> readout_number("Cc1nc(Nc2ccc3c(c2)OCO3)c2c(-c3ccnc(N)c3)c[nH]c2n1 [Example 132]")
0.122
>>> readout_number("Cc1nc(Nc2ccccc2C(F)(F)F)c2c(-c3ccnc(N)c3)c[nH]c2n1 [Example 130]")
0.26

1. Cc1nc(NCc2cc(C)on2)c2c(-c3ccnc(N)c3)c[nH]c2n1 [Example 59]
2. Nc1cc(-c2c[nH]c3nc(C4CC4)nc(NCc4c(F)cccc4F)c23)ccn1 [Example 147]
stdin: For 1 and 2 , which recorded IC50 is lower? Answer with the label corresponding to your selection.
stdout: 1
(1: 0.042 µM, 2: 0.17 µM)

* * *

- measured target: DYRK1B (Homo sapiens)
- Construct: full-length human kinases from Carna Biosciences; purchased Carna Biosciences 04-131
- Sequence (Q9Y463 whole entry): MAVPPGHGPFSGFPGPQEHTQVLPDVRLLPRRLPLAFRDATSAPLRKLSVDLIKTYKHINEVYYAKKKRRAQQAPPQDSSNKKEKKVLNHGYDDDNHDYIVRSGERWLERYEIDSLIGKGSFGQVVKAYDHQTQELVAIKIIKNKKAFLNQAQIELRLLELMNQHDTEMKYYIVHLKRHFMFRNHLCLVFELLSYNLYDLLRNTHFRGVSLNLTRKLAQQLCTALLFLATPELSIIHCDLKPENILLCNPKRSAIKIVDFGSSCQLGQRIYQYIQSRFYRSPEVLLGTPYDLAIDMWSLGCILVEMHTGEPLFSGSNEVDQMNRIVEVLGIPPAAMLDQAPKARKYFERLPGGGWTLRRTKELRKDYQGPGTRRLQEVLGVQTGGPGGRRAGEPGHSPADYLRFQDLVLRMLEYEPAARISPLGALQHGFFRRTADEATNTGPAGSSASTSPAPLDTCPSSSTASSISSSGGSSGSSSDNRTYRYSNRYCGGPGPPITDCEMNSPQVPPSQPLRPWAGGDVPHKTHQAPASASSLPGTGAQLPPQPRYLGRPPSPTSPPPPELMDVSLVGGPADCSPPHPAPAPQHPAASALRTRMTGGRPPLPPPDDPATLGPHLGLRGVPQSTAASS
- assay overview: Kinase TR-FRET assay, DYRK1B
- Format: biochemical
parameter measured: IC50 (µM)

>>> readout_number("Cc1nc(NCc2ncccc2C(F)(F)F)c2c(-c3ccnc(N)c3)c[nH]c2n1")
0.0145
>>> readout_number("Cc1nc(C2=Cc3ccccc3CC2)c2c(-c3ccnc(N)c3)c[nH]c2n1")
0.0081

I. Cc1nc(NC(C)c2c(F)cccc2F)c2c(-c3ccnc(N)c3)c[nH]c2n1 (stereo not shown)
II. Cc1nc(NC2Cc3ccccc3C2)c2c(-c3ccnc(N)c3)c[nH]c2n1
stdin: Of I and II , whose reported IC50 is the larger number? Answer with the label corresponding to your selection.
stdout: II
(II: 0.0293 µM, I: 0.0199 µM)

A. COc1nc(C)nc2[nH]cc(-c3ccnc(N)n3)c12
B. Cc1nc(OCC2CCCC2)c2c(-c3ccncc3)c[nH]c2n1
C. Cc1nc(NCc2ncccc2F)c2c(-c3ccnc(N)c3)c[nH]c2n1
D. Cc1nc(N[C@@H]2CCc3ccccc32)c2c(-c3ccnc(N)c3)c[nH]c2n1
stdin: Which order do these items take when sorted by rising IC50? List them. Output spec: labels arranged per the requested ranking.
stdout: D, C, B, A
(D: 0.0005 µM, C: 0.0074 µM, B: 0.0143 µM, A: 0.0222 µM)

I. Cc1nc(NCc2c(C)cccc2Cl)c2c(-c3ccnc(N)c3)c[nH]c2n1
II. Cc1nc(-c2ccc3c(c2)OCO3)c2c(-c3ccnc(N)c3)c[nH]c2n1
III. Cc1nc(NCc2c(C)cccc2F)c2c(-c3ccnc(N)c3)c[nH]c2n1
IV. Cc1cc(-c2ccc3c(c2)OCCO3)c2c(-c3ccnc(N)c3)c[nH]c2n1
stdin: Which order do these items take when sorted by rising IC50? List them. Output spec: labels arranged per the requested ranking.
stdout: III, IV, II, I
(III: 0.0015 µM, IV: 0.0077 µM, II: 0.0115 µM, I: 0.0175 µM)

a. Cc1nc(OCc2ccccc2)c2c(-c3ccncc3)c[nH]c2n1
b. Cc1nc(-c2cc3ccccc3n2C)c2c(-c3ccnc(N)c3)c[nH]c2n1
c. Cc1nc(NCc2c(Cl)cccc2Cl)c2c(-c3ccnc(N)c3)c[nH]c2n1
d. COc1cccc(F)c1CNc1nc(C)nc2[nH]cc(-c3ccnc(N)c3)c12
stdin: Which order do these items take when sorted by rising IC50? List them. Output spec: labels arranged per the requested ranking.
stdout: d, c, a, b
(d: 0.0011 µM, c: 0.0029 µM, a: 0.0132 µM, b: 0.0211 µM)

a. Cc1nc(CN2CCc3ccccc32)c2c(-c3ccnc(N)c3)c[nH]c2n1
b. CCOc1ccccc1CNc1nc(C)nc2[nH]cc(-c3ccnc(N)c3)c12
c. COc1ccccc1CNc1nc(C)nc2[nH]cc(-c3ccnc(N)c3)c12
stdin: Ranking field: IC50; order: falling. Output spec: labels arranged per the requested ranking.
stdout: a, b, c

I. C#Cc1nc(NCc2c(F)cccc2F)c2c(-c3ccnc(N)c3)c[nH]c2n1
II. Cc1nc(NCc2ccccc2C(F)(F)F)c2c(-c3ccnc(N)c3)c[nH]c2n1
stdin: Of I and II , whose reported IC50 is the larger number? Answer with the label corresponding to your selection.
stdout: I
(I: 0.0144 µM, II: 0.0093 µM)

A. Cc1nc(N2CCC3CCCCC3C2)c2c(-c3ccnc(N)c3)c[nH]c2n1 (stereo not shown)
B. Cc1nc(NCc2cccc(Cl)c2C)c2c(-c3ccnc(N)c3)c[nH]c2n1
C. Cc1nc(OCc2ccc(C(C)C)cc2)c2c(-c3ccnc(N)c3)c[nH]c2n1
stdin: Ranking field: IC50; order: falling. Output spec: labels arranged per the requested ranking.
stdout: C, A, B
(C: 0.0522 µM, A: 0.0167 µM, B: 0.0112 µM)

1. Cc1nc(-c2cc3cccc(Cl)c3s2)c2c(-c3ccnc(N)c3)c[nH]c2n1
2. Cc1nc(OCCc2scnc2C)c2c(-c3ccnc(N)c3)c[nH]c2n1
3. Cc1cc(-c2c[nH]c3nc(C)nc(OCc4ccsc4)c23)ccn1
4. Cc1nc(N2CCc3ccccc3C2)c2c(-c3ccnc(N)c3)c[nH]c2n1
stdin: Which order do these items take when sorted by rising IC50? List them. Output spec: labels arranged per the requested ranking.
stdout: 3, 2, 1, 4
